Answer each item with its documented log10 EC50.
Tested on: NCI-H1299
METHOD: Inhibition of camptothecin induced mitotic arrest in human NCI-H1299 cells after 18 hrs
Type: functional, cell-based
REPORTED CONDITIONS: NCI-H1299, 18 h
Friendly reminder: values = log10 of EC50, unit nM.

Consider the worked cases shown below.
>>> quantitative_result("NCCCc1cc2cc[nH]c(=O)c2c2cc(Cl)ccc12")
2.36
>>> quantitative_result("NCCCc1cc2c(-c3ccc(Cl)cc3Cl)c[nH]c(=O)c2c2cc(-c3cn[nH]c3)ccc12")
2.43
>>> quantitative_result("NCCCc1cc2cc[nH]c(=O)c2c2cc(-c3ccc(CN)cc3)ccc12")
3.03
>>> quantitative_result("NCCCc1cc2c(-c3cccc(F)c3)c[nH]c(=O)c2c2cc(-c3cn[nH]c3)ccc12")
2.48
>>> quantitative_result("NCCCc1cc2c(-c3ccccc3O)c[nH]c(=O)c2c2cc(-c3cn[nH]c3)ccc12")
2.36

Please go through the list and note log10 EC50 for each compound.
1. NCCCc1cc2c(-c3ccc(O)cc3)c[nH]c(=O)c2c2cc(-c3cn[nH]c3)ccc12
2. NCCCc1cc2cc[nH]c(=O)c2c2cc(Br)ccc12
3. NCCCc1cc2c(-c3ccccc3F)c[nH]c(=O)c2c2cc(-c3cn[nH]c3)ccc12
4. NCCc1cc2cc[nH]c(=O)c2c2cc(-c3ccc[nH]3)ccc12

Marked response:
[1.67, 2.49, 2.57, 1.15]
